- ASSAY TARGET: PfUSP14 (PFE1355c, ubiquitin carboxyl-terminal hydrolase, putative) (Plasmodium falciparum)
- Construct: recombinant hexahistidyl-tagged PfUSP14
- Sequence (Q8I3J3 1-605): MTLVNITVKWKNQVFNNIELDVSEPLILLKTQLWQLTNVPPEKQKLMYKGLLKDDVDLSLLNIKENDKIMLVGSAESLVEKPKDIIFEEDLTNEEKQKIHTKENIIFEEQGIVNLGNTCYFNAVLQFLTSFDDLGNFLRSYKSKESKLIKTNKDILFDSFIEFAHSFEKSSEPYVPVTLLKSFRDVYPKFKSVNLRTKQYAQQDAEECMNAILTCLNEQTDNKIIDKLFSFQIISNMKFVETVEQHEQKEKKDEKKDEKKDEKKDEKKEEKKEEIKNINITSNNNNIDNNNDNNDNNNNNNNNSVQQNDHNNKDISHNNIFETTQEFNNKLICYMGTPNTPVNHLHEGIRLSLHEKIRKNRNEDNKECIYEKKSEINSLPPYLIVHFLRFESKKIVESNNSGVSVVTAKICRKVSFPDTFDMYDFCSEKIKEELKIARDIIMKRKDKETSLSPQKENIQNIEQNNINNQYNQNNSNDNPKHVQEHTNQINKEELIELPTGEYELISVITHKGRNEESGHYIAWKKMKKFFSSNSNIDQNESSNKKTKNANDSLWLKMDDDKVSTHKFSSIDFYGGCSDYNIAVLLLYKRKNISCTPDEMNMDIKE
- RUN DESCRIPTION: concentration-dependent inhibition of recombinant PfUSP14 deubiquitinase activity
pIC50: −log10 of the molar value.

| SMILES | pIC50 |
| --- | --- |
| C=CC(=O)N1C/C(=C\c2ccc([N+](=O)[O-])cc2)C(=O)/C(=C/c2ccc([N+](=O)[O-])cc2)C1 | 4.95 |
